assay procedure: Cytotoxicity, CellTiter 96 cell proliferation assay, HepG2 cells
Assay type: cell-based, human
measurement setup: human, HepG2 hepatocellular carcinoma cells
outcome measure: CC50 (µM)

# molecule, outcome measure, unit, relational operator, reported result
records = [
    ("Cc1c(C(=O)C(=O)NCc2c[nH]nn2)c(C)n(C)c1C(=O)Nc1ccc(F)c(F)c1 [Compound 7]", "CC50", "µM", ">", 100),
    ("CCCCCCCCCCCCn1cc(CNC(=O)C(=O)c2c(C)c(C(=O)Nc3ccc(F)c(F)c3)n(C)c2C)nn1 [Compound 10]", "CC50", "µM", "=", 30.5),
]
